- Tested on: T47D
- ASSAY_PROTOCOL: NCI tumour cell line growth inhibition, 48 h
Active and inactive are the calls of the source. Rule as the data show it: active = GI50 up to about 1.1 µM and inactive = higher.
Tick one outcome: TRUE (active), FALSE (inactive)

# input Hi team, can someone confirm the assay call for CC(=O)Nc1ccc(S(=O)(=O)/N=C2\C=CC(=O)c3ccccc32)cc1 ?
# output FALSE

# input Another compound: COC(=O)C1CC23C=CCN4CC(C2C)C2(c5ccccc5NC12)C43 (stereo not drawn)
# output FALSE

# input Lookup CCC1c2[nH]c3ccccc3c2C[C@H]2C(=O)NC(COC(C)(C)C)C(=O)N12 (stereo partly drawn)
# output FALSE

# input Same lookup for COc1ccc2c(c1)c(=O)c1c(NCCN(C)C)ccc3c(=O)n(CCN(C)C)c(=O)n2c31 , please.
# output TRUE

# input Check CC(C)(C)OC(=O)CCC1NC(=O)[C@@H]2Cc3c([nH]c4ccccc34)C(C3CCCCC3)N2C1=O (stereo partly drawn) too.
# output FALSE

# input Next compound: CCOc1cc2c(cc1OC(C)=O)C(=O)CC[C@H]1C3CC[C@H](OC(C)=O)[C@@]3(C)CC[C@H]21 (stereo partly drawn)
# output FALSE

# input Note, next up: CC(=O)O[C@H]1C(=O)[C@@]2(C)C(C(OC(=O)c3ccccc3)[C@]3(O)CC(OC(=O)C(O)C(NC(=O)c4ccccc4)c4cccc(Cl)c4)C(C)=C1C3(C)C)[C@]1(OC(C)=O)CO[C@@H]1C[C@@H]2O (stereo partly drawn)
# output FALSE

# input # repeat for COc1ccc(C(NCCNC(c2ccc(OC)c(OC)c2)c2cc3c(cc2O)OCO3)c2cc3c(cc2O)OCO3)cc1OC (stereo not drawn)
# output FALSE

---

- Test system: UACC-62
- ASSAY_PROTOCOL: NCI tumour cell line growth inhibition, 48 h
Active and inactive are the calls of the source. No stated cut-off is given here; in the data, active = GI50 up to about 1.1 µM and inactive = higher.
Parameter call: string, one of class 1 for active, class 0 for inactive

# input How did this test come out for COc1ccc(CNNC(=O)c2cc[n+]([BH2-]C#N)cc2)cc1OC ?
# output class 0

# input Do the same for COC1=CC(=O)c2c(cc(COP(N)(=O)N(CCBr)CCBr)n2C)C1=O (configuration not stated) please
# output class 1

# input Now try C=C1C[C@]23CC[C@@H]4C(CO)(CO)CC(=O)C[C@]4(C)[C@@H]2C(O)C[C@H]1C3 (some centres not stated) .
# output class 0

# input Here is the next compound: O=c1[nH]c(C23CC4CC(CC(C4)C2)C3)cc2c1c(=O)oc1ccccc12
# output class 0

# input Same question, CC(C)=CCCC1(C)C2COC(=O)C21 (configuration not stated) this time
# output class 0

# input Similarly, O=S(=O)(c1ccccc1)[C@@H]1[C@H]2C=C[C@](CS)(O2)[C@H]1S(=O)(=O)c1ccccc1 ?
# output class 0

# input Next entry: COc1cc2c(c(OC)c1OC)-c1ccc(SC)c(=O)cc1[C@@H](NC(=O)c1cccc([N+](=O)[O-])c1)CC2
# output class 1

---

- Test system: RPMI-8226
- ASSAY_PROTOCOL: NCI tumour cell line growth inhibition, 48 h
The source made the active and inactive calls. Rule as the data show it: active = GI50 up to about 1.1 µM and inactive = higher.
Assignment: determine reported GI50 for the given compounds.

# input # query: GI50 | item CCOc1ccc(N2C(=O)/C(=C/c3ccc(N(CCC#N)CCC#N)cc3)N=C2c2cc([N+](=O)[O-])ccc2Cl)cc1 | system: RPMI-8226
# output 15.7 µM (inactive)

# input Next entry: COc1ccc(C2S/C(=C\c3ccc([N+](=O)[O-])cc3)C(=O)N2NC(=O)Cc2ccccc2)cc1 (centres undefined)
# output > 100 µM (inactive)

# input Another: CC(C)(C)OC(=O)N(CCCCNC(=O)c1ccccc1)CCCNC(=O)c1ccccc1
# output > 100 µM (inactive)

# input // repeat for C=C1c2nc3ccccc3n2C=C(c2ccc(C)cc2)N1c1ccc(OC)cc1 and report
# output 13 µM (inactive)

---

Can you tell me GI50 for the items I'm about to list?
- System: UO-31
- ASSAY_PROTOCOL: NCI tumour cell line growth inhibition, 48 h
Calls of active or inactive are those of the source. Cut-off read from the data, not from the text of the source: active = GI50 up to about 1.1 µM and inactive = higher.

# input I'd like to know its GI50. The compound in question is CSCSCC(N)CO.Cc1[nH]c(=O)[nH]c(=O)c1/C=C/C(=O)O
# output > 625 µM (inactive)

# input Also check COc1ccc(-c2nc3c(nc2-c2ccc(OC)cc2)C(N)=NS(=O)(=O)N3)cc1
# output > 100 µM (inactive)

# input Also check Cc1ccc(OC2CC(n3cnc4c(=O)[nH]c(Br)nc43)OC2Oc2ccc(C)cc2)cc1 (stereo unspecified)
# output 19.1 µM (inactive)

# input Next record, please: CC(=O)Nc1ccc(S(=O)(=O)/N=C2\C=CC(=O)c3ccccc32)cc1
# output 7.48 µM (inactive)

# input Now the compound COc1ccc2nc3cc([N+](=O)[O-])ccc3c(Nc3ccc(S(=O)(=O)NC(C)=O)cc3)c2c1
# output 73.6 µM (inactive)

# input Try [N-]=[N+]=Nc1ncnc2c1sc(=S)n2-c1ccccc1 next.
# output > 100 µM (inactive)

# input Also, CC1SC2=NC3=C(c4ccccc4C3=O)C(c3ccc(Br)cc3)N2C1=O (stereo unspecified) please.
# output 8.47 µM (inactive)

# input Note, next up: CO/N=C(\C)c1ccc(Nc2nc3ccccc3c3occc23)cc1
# output 18.9 µM (inactive)

# input Check COc1ccc2c(c1)CCc1c(-c3n[nH]c4c3CCc3cc(OC)ccc3-4)n[nH]c1-2 too.
# output 40.5 µM (inactive)

# input Field entry: O=c1oc2cc(O)ccc2c2oc3cc(O)ccc3c12
# output 48.3 µM (inactive)

# input Could you do the same for C=C(C)[C@@H]1CC[C@]2(C)CC[C@]3(C)[C@H](CC[C@@H]4[C@@]5(C)CC[C@H](OC(=O)c6ccccc6)C(C)(C)[C@@H]5CC[C@]43C)[C@@H]12 , please?
# output > 100 µM (inactive)
